- assayed_target: Lysyl oxidase homolog 3 (Homo sapiens, UniProt P58215)
- Sequence (P58215 whole entry): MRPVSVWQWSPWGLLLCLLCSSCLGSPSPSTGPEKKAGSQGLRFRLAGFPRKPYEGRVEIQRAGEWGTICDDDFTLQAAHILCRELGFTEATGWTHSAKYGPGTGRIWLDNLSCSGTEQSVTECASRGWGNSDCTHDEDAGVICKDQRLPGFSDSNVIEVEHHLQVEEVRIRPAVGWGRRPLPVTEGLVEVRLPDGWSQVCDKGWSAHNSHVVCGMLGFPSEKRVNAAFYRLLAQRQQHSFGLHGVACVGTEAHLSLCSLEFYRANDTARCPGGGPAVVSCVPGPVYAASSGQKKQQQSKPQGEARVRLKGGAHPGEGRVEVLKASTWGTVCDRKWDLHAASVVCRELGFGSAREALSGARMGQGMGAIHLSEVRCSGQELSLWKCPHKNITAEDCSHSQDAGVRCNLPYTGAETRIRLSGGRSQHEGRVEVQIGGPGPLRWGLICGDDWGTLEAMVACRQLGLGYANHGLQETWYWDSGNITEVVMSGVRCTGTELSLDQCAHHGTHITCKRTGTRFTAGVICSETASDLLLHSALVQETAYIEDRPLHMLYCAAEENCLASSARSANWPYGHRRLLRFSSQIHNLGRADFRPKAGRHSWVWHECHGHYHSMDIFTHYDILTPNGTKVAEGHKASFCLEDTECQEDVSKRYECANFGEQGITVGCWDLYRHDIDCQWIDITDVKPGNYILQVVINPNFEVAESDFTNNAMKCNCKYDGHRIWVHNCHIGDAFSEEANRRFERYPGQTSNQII
- measurement_protocol: Inhibition of recombinant human LOXL3 expressed in CHO cells using diaminopentane as substrate preincubated for 30 mins followed by substrate addition measured after 1 hr by fluorimetric method
Reported log10 of IC50 is given for each of the following molecules.
Note: values are log10 of IC50 expressed in nM.

# molecule, log10 of IC50
measured = [
    ("O=c1c2cccnc2[nH]c(=S)n1-c1ccccc1", 4.26),
    ("CCN(CC)C(=S)SSC(=S)N(CC)CC", 1.97),
]

input: // fetch log10 of IC50 given entry `[O-][n+]1ccccc1S`
output: 4.08

input: // fetch log10 of IC50 given entry `CN(C)C(=S)SSC(=S)N(C)C`
output: 2.04

input: // fetch log10 of IC50 given entry `N#CCCN`
output: 2.23

input: // fetch log10 of IC50 given entry CC1=NN(c2ccccc2)C(=O)C1C (centres undefined)
output: 3.11

Data provenance is ChEMBL document CHEMBL4229522.
